This collection of values is drawn from patent US20250059174A1.

# Test system: M-07e cells
# MEASUREMENT_PROTOCOL: M-07e cellular assay (SCF-mediated cell proliferation)
# Format: cell-based
# MEASUREMENT_PARAMETERS: Homo sapiens, 72 hours, CellTiter Glo
Attribute: EC50

Some compounds with recorded EC50:
Cc1ccc(-c2noc([C@H]3C[C@@H]3F)n2)cc1NC(=O)c1cnc(-c2ccc(NS(C)(=O)=O)cc2)o1 [Example 308-22]	0.1 to 1 µM
Cc1ncc(-c2ccc(OC(F)(F)F)cn2)cc1NC(=O)c1cnn2ccc(N3CC4(COC4)C3)cc12 [Example 332]	< 0.1 µM
Cc1ccc(-c2cnc(OC(F)F)nc2)cc1NC(=O)c1cnn2ccc(N3CC4(COC4)C3)cc12 [Example 329]	0.1 to 1 µM
Cc1sc(-c2noc([C@H]3C[C@@H]3F)n2)cc1NC(=O)c1cnn2ccc(N3CC4(C3)CC(O)(C(F)F)C4)cc12 [Example 281-95]	< 0.1 µM
Cc1ncc(-c2noc([C@H]3CN(C(=O)C4(F)CC4)[C@@H]3C)n2)cc1NC(=O)c1cnn2ccc(N3CC4(C3)CC(O)(C(F)F)C4)cc12 [Example 281-15]	0.1 to 1 µM

Entry Cc1ccc(-c2noc([C@H]3C[C@@H](C(F)(F)F)C3)n2)cc1NC(=O)c1cnc(-c2ccc3c(c2)CC(=O)N3)o1 [Example 308-2] , EC50 reported as < 0.1 µM

The compound listed as Cc1sc(-c2noc(C3(F)CN(C(=O)[C@H]4C[C@@H]4F)C3)n2)cc1NC(=O)c1cnn2ccc(N3CC4(C3)CC(O)(C(F)F)C4)cc12 [Example 281-111] shows EC50 equal to 0.1 to 1 µM

EC50 in this record for Cc1ccc(-c2noc([C@H]3C[C@@H]3F)n2)cc1NC(=O)c1n[nH]c2ncccc12 [Example 40] : > 1 µM

###

# SYSTEM_UNDER_TEST: Recombinant human c-KIT kinase (Homo sapiens (Human), UniProt P10721)
# Sequence (P10721 26-976): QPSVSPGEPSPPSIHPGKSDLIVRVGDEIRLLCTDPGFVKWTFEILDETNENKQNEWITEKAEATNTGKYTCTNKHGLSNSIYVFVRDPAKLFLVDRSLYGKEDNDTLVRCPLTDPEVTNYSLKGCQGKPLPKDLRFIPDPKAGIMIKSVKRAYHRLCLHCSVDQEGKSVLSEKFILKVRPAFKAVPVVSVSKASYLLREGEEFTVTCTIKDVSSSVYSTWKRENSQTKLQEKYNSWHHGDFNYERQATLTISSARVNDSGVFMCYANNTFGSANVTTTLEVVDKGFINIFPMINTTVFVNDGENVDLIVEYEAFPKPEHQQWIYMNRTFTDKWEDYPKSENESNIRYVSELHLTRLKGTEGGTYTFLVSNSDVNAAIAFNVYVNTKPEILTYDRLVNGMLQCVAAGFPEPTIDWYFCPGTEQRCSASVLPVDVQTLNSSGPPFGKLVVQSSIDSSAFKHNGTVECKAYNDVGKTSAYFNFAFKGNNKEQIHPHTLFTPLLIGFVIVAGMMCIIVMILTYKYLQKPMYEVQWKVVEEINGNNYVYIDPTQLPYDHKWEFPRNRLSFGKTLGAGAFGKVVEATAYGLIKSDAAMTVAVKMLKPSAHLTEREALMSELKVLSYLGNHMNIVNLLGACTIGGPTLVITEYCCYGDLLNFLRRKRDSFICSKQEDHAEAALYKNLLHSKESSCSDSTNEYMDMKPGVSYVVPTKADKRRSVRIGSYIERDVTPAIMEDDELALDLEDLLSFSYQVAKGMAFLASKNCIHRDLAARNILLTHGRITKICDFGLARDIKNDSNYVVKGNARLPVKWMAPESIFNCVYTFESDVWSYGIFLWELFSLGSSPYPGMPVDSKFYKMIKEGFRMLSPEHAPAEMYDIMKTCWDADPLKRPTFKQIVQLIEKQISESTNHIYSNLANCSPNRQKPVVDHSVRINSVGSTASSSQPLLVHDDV
# MEASUREMENT_PROTOCOL: c-KIT kinase chemiluminescence assay (ADP-Glo)
# MEASUREMENT_PARAMETERS: ATP 50 μM
pIC50: −log10 of the molar value.
// reported pIC50 for each item listed

Cc1ccc(-c2noc([C@H]3C[C@@H]3F)n2)cc1NC(=O)c1cnn2ccc(C#N)cc12	6.00 to 7.00
Cc1ccc(-c2noc([C@H]3C[C@@H]3F)n2)cc1NC(=O)c1cnn2ccc(N3CCCC4(COC4)C3)cc12	> 7.00

// recorded pIC50 for O=C(Nc1cc(-c2ccc(C3CC3)cn2)ccc1Cl)c1cnn2ccc(N3CC4(C3)CC(O)(C(F)F)C4)cc12 : < 6.00

###

# Tested on: M-07e cells
# MEASUREMENT_PROTOCOL: M-07e cellular assay (SCF-mediated cell proliferation)
# Format: cell-based
# MEASUREMENT_PARAMETERS: Homo sapiens, 72 hours, CellTiter Glo
ASSAY_METRIC: EC50

Known results for molecules:
Cc1ncc(-c2ncc(C3CC3)cn2)cc1NC(=O)c1cnn2ccc(N3CC4(C3)CC(O)(C(F)F)C4)cc12 [Example 317]	< 100 nM
Cc1ncc(C(=O)Nc2cc(-c3noc([C@H]4C[C@@H]4F)n3)ccc2C)s1 [Example 34]	> 1000 nM
Cc1ccc(-c2ncc(OC(F)F)cn2)cc1NC(=O)c1cnn2ccc(N3CC4(C3)CC(O)(C(F)F)C4)cc12 [Example 314]	< 100 nM
O=C(Nc1cc(-c2noc(C3CC(F)(F)C3)n2)ccc1Cl)c1cnn2ccc(N3CC4(C3)CC(O)(C(F)F)C4)cc12 [Example 281-30]	< 100 nM
Cc1ccc(-c2noc([C@H]3CC3(F)F)n2)cc1NC(=O)c1cnn2ccc(N3CC4(COC4)C3)cc12 [Example 281-7]	< 100 nM

Query Cc1ccc(-c2noc([C@H]3C[C@@H]3F)n2)cc1NC(=O)c1cnn2ccc(-c3cnn(C4COC4)c3)cc12 [Example 136] yields EC50 of < 100 nM

EC50 for Cc1ccc(-c2noc([C@H]3C[C@@H]3F)n2)cc1NC(=O)c1cnc(-c2ccc3c(c2)C2(CC2)C(=O)N3)o1 [Example 308-4] is 100 to 1000 nM

Record Cc1ccc(-c2noc(C3CN(C(=O)C(F)(F)F)C3)n2)cc1NC(=O)c1cnn2ccc(N3CC4(COC4)C3)cc12 [Example 281-47] , field EC50: > 1000 nM

For this molecule ( CC(=O)N1CCC(c2nc(-c3cnc(C)c(NC(=O)c4cnn5ccc(N6CC7(C6)CC(O)(C(F)F)C7)cc45)c3)no2)C1 (stereo not drawn) [Example 281-55] ), measured EC50 is > 1000 nM

Recorded result, Cc1ccc(-c2noc(C3CCN(C(=O)[C@H]4C[C@@H]4F)C3)n2)cc1NC(=O)c1cnn2ccc(N3CC4(C3)CC(O)(C(F)F)C4)cc12 (stereo partly drawn) [Example 281-96] , EC50: 100 to 1000 nM

###

# SYSTEM_UNDER_TEST: Recombinant human c-KIT kinase (Homo sapiens (Human))
# MEASUREMENT_PROTOCOL: c-KIT kinase chemiluminescence assay (ADP-Glo)
# MEASUREMENT_PARAMETERS: ATP 50 μM
ASSAY_METRIC: IC50

Before answering, review these 3 worked examples.
Cc1sc(-c2noc(C3CN(C(=O)C4CC4)C3)n2)cc1NC(=O)c1cnn2ccc(N3CC4(C3)CC(O)(C(F)F)C4)cc12	0.1 to 1 µM
Cc1ccc(-c2noc([C@H]3C[C@@H]3F)n2)cc1NC(=O)c1cnn2ccc(OC3COC3)cc12	< 0.1 µM
Cc1ccc(-c2noc([C@H]3C[C@@H]3F)n2)cc1NC(=O)c1cnc(-c2cccc(N)n2)o1	> 1 µM

So, Cc1ccc(-c2noc([C@H]3C[C@@H]3F)n2)cc1NC(=O)c1cnn2ccc(-c3cnn(CCO)c3)cc12 ? Its IC50 was < 0.1 µM

Consider Cc1ccc(-c2noc([C@H]3C[C@@H]3F)n2)cc1NC(=O)c1cnn2ccc(-c3c(C)nn(C4COC4)c3C)cc12 . Its measured IC50 is < 0.1 µM

###

# SYSTEM_UNDER_TEST: Recombinant human c-KIT kinase (Homo sapiens (Human))
# MEASUREMENT_PROTOCOL: c-KIT kinase chemiluminescence assay (ADP-Glo)
# MEASUREMENT_PARAMETERS: ATP 50 μM
ASSAY_METRIC: IC50

Use these answered entries as a reference point.
CC(=O)N1CCC(c2nc(-c3cnc(C)c(NC(=O)c4cnn5ccc(N6CC7(COC7)C6)cc45)c3)no2)CC1 [Example 281-75]	> 1000 nM
COC(=O)N1CC(c2nc(-c3ccc(C)c(NC(=O)c4cnn5cc(-c6cn(C(F)F)nn6)ccc45)c3)no2)C1 [Example 132-15]	< 100 nM
Cc1sc(-c2cnc(C3CC3)nc2)cc1NC(=O)c1cnn2ccc(N3CC4(C3)CC(O)(C(F)F)C4)cc12 [Example 355]	100 to 1000 nM

// field: IC50; key: Cc1ccc(-c2noc([C@H]3C[C@@H]3F)n2)cc1NC(=O)c1cnn2ccc(N3C[C@@H]4C[C@H]3CO4)cc12 [Example 200] ; value = < 100 nM

Lab book: IC50 of Cc1ccc(-c2noc([C@H]3C[C@@H]3F)n2)cc1NC(=O)c1cnn2ccc(N3CCN(C(=O)C4CC4)[C@H](C)C3)cc12 [Example 241-5] noted as < 100 nM

Summary for this molecule, Cc1ncc(-c2cn(C3CC3)nn2)cc1NC(=O)c1cnn2ccc(N3CC4(C3)CC(O)(C(F)F)C4)cc12 [Example 377] : IC50 is 100 to 1000 nM

Briefly, IC50 measured for Cc1ccc(-c2noc([C@H]3C[C@@H]3F)n2)cc1NC(=O)c1cnc(-c2ccc3c(c2)OCCN3)o1 [Example 308-24] : < 100 nM

###

# SYSTEM_UNDER_TEST: Recombinant human c-KIT kinase (Homo sapiens (Human))
# MEASUREMENT_PROTOCOL: c-KIT kinase chemiluminescence assay (ADP-Glo)
# Assay type: biochemical
# MEASUREMENT_PARAMETERS: ATP 50 μM
ASSAY_METRIC: IC50

These solved cases illustrate the format of a correct answer.
Cc1ccc(-c2noc([C@H]3C[C@@H]3F)n2)cc1NC(=O)c1cnc(-c2ccc(C(C)(C)O)s2)o1	> 1 µM
Cc1ncc(-c2noc([C@@H]3CN(C(=O)C(C)(F)F)[C@H]3C)n2)cc1NC(=O)c1cnn2ccc(N3CC4(C3)CC(O)(C(F)F)C4)cc12	0.1 to 1 µM
Cc1ccc(-c2noc([C@H]3C[C@@H]3F)n2)cc1NC(=O)c1cnc(-c2ccc(NC(N)=O)cc2)o1	0.1 to 1 µM
COC(=O)N1C[C@@H](c2nc(-c3cnc(C)c(NC(=O)c4cnn5ccc(N6CC7(C6)CC(O)(C(F)F)C7)cc45)c3)no2)[C@@H]1C	0.1 to 1 µM
C=CCC1c2ccccc2-c2ncc(C(=O)Nc3cc(-c4noc([C@H]5C[C@@H]5F)n4)ccc3C)n21 (stereo partly drawn)	0.1 to 1 µM

Next item in the queue.
IC50 measured on O=C(Nc1cc(-c2noc([C@H]3C[C@@H](C(F)(F)F)C3)n2)ccc1Cl)c1cnn2ccc(N3CC4(C3)CC(O)(C(F)F)C4)cc12 = < 0.1 µM
